System: smallflower umbrella sedge
assayInfo: Test C flooded paddy test
Format: in vivo, Cyperus difformis
experimentalParameters: 62 g ai/ha, scale 0 to 100
parameter: Sedge, Umbrella plant response rating

CCc1nn(C(C)(C)C)nc1C(=O)Nc1cc(C(=O)N(C)CC)ccc1F    65

For every listed record, write down its Sedge, Umbrella plant response rating.
1. CCNC(=O)c1cccc(NC(=O)c2nn(C(C)C)nc2C)c1
2. CCC1=NN(C(C)(C)C)CC1C(=O)Nc1cc(C(=O)N2CCCC2)ccc1F (racemic)
3. CCNC(=O)c1ccc(F)c(N(C(C)=O)C(=O)c2cc(C(C)(C)C)nn2CC)c1

1. 40
2. 20
3. 65

----------
System: chickweed
assayInfo: Test C postemergence herbicide test
Assay type: in vivo, Stellaria media
experimentalParameters: postemergence; 62 g ai/ha; scale 0 to 100
parameter: Plant response rating, Chickweed
Numbers only.

Here's what some known entries look like.
CC(=NO)c1cccc(NC(=O)c2cc(C(C)(C)C)nn2CC(F)(F)F)c1    0
C#CCOC(=O)c1cccc(NC(=O)c2cc(C(C)(C)C)nn2CC)c1    0
CCn1nc(C(C)(C)C)cc1C(=O)Nc1cccc(C#N)c1    0

Attention now shifts to the item below.
Look up Plant response rating, Chickweed for this compound: CCn1nc(C(C)(C)C)cc1C(=O)Nc1cccc(C(=O)NC2CC2)n1
10

----------
Test system: large crabgrass
assayInfo: Test A pre-/postemergence herbicide test
Type: in vivo, Digitaria sanguinalis
experimentalParameters: Preemergence, 500 g ai/ha; visual rating, 0 to 100 scale (0 no effect, 100 complete control)
parameter: Crabgrass, Large plant response rating
Give bare numbers.

C=CCOC(=O)c1cccc(NC(=O)c2cc(C(C)(C)C)nn2CC)c1    0
CC(=NO)c1ccnc(NC(=O)c2cc(C(C)(C)C)nn2C)n1    0
C=CCn1nc(C(C)(C)C)cc1C(=O)Nc1cccc(C(C)=NO)c1    45
C=Cn1nc(C(C)(C)C)cc1C(=O)Nc1cccc(C(=O)OCC)c1    60
CC(=NO)c1cccc(NC(=O)c2cc(C(C)(C)C)nn2CC(F)(F)F)c1    45

Look up Crabgrass, Large plant response rating for this molecule: CCn1nc(C(C)(C)C)cc1C(=O)Nc1cccc2c1CNC2=O
70

----------
Tested on: Surinam grass
assayInfo: Test B pre-/postemergence herbicide test
Format: in vivo, Urochloa decumbens
experimentalParameters: 500 g ai/ha; visual rating, 0 = no effect, 100 = complete control; preemergence
parameter: Plant response rating, Surinam Grass
Answers are plain numbers.

Here's what some known entries look like.
CCn1nc(C(C)(C)C)cc1C(=O)Nc1cc(C(=O)OC(C)C)c(F)cc1F    60
CCn1nc(C(C)(C)C)cc1C(=O)Nc1cccc(OC(F)(F)C(F)F)c1    20
CCNC(=O)c1ccc(F)c(NC(=O)c2c(F)c(C(C)(C)C)nn2CC)c1    10

Look up Plant response rating, Surinam Grass for this compound: CCc1cn(C(C)(C)C)nc1C(=O)Nc1cc(C(=O)N(C)C)ccn1
30

----------
Assign Surinam Grass plant response rating to each entry below.
System: Surinam grass
assayInfo: Test B pre-/postemergence herbicide test
Format: in vivo, Urochloa decumbens
experimentalParameters: postemergence, 500 g ai/ha; scale 0 to 100, 0 is no effect, 100 is complete control
Procedure: […] At the same time, plants selected from these crop and weed species and also blackgrass (Alopecurus myosuroides Huds.), wheat (Triticum aestivum L.) and wild oat (Avena fatua L.) were treated with postemergence applications of test chemicals formulated in the same manner. […] Treated plants and controls were maintained in a greenhouse for 13 to 15 days, after which time all species were compared to controls and visually evaluated. […]
One number for each entry.

Here's what some known entries look like.
C#CCNC(=O)c1ccc(F)c(NC(=O)c2cc(C3(C)CC3)nn2CC)c1    10
CCn1nc(C(C)(C)C)cc1C(=O)Nc1ccnc(C(=O)NCCF)c1    20
CCC1=NN(C(C)(C)C)CC1C(=O)Nc1cc(C(=O)N2CC=CC2)ccc1F (racemic)    20
CCn1nc(C(C)(C)C)cc1C(=O)Nc1cc(C(=O)N2CCOCC2)ccc1F    20
CCN1N=C(C(C)(C)C)CC1C(=O)Nc1cc(C(=O)N2CCCCC2)ccc1F (racemic)    20
CCOC(=O)c1ccc(F)c(NC(=O)c2cc(C3(C)CC3)nn2CC)c1    50

For every listed record, write down its Surinam Grass plant response rating.
1. CCn1nc(C2(C)CC2)cc1C(=O)Nc1cccc(C(=O)N2CC=CC2)c1
2. Cc1nn(C(C)(C)C)cc1C(=O)Nc1cc(C(=O)N(C)C)ccc1F
3. CCn1nc(C(C)(C)C)cc1C(=O)Nc1cc(C(=O)OC(C)C)c(F)cc1F

[10, 10, 20]

----------
Assign Cocklebur plant response rating to each entry below.
System: cocklebur
assayInfo: Test B pre-/postemergence herbicide test
Type: in vivo, Xanthium strumarium
experimentalParameters: 125 g ai/ha; visual rating, scale 0 (no effect) to 100 (complete control); postemergence
Numbers only.

CCc1nn(C2CCCC2)nc1C(=O)Nc1cccc(C(=O)N(C)C)c1    0
CCN1N=C(C(C)(C)C)CC1C(=O)Nc1cc(C(=O)N2CCCC2)ccc1F (racemic)    40
C=CCN(CC=C)C(=O)c1ccc(F)c(NC(=O)c2nn(C(C)(C)C)nc2CC)c1    0
CCNC(=O)c1cccc(NC(=O)c2cc(C(C)(C)C)n[nH]2)c1    0
CCc1nn(C(C)C)nc1C(=O)Nc1cccc(C(=O)N2CC=CC2)c1    10

For every listed record, write down its Cocklebur plant response rating.
1. CCc1nn(C(C)(C)C)nc1C(=O)Nc1cc(C(=O)N(C)CC)ccc1F
2. CCOc1ccc(F)c(NC(=O)c2cc(C(C)(C)C)nn2CC)c1
3. CCc1nn(C(C)(C)CC)nc1C(=O)Nc1cccc(C(=O)N2CC=CC2)c1

1: 10; 2: 0; 3: 20

----------
Tested on: yellow nutsedge
assayInfo: Test C pre-/postemergence herbicide test
Format: in vivo, Cyperus esculentus
experimentalParameters: 125 g ai/ha; scale 0 (no effect) to 100 (complete control); visual, 12 to 14 days; preemergence
parameter: Plant response rating, Nutsedge, Yellow
One number for each entry.

CCc1nn(C(C)(C)C)cc1C(=O)Nc1cccc(C(C)=NO)c1    0
CCNC(=O)c1cc(C)nc(NC(=O)c2cc(C(C)(C)C)nn2CC)c1    0
CCn1nc(C(C)(C)C)cc1C(=O)Nc1ccc(F)c(C(=O)NCCF)c1    0
C=CCNC(=O)c1cccc(NC(=O)c2sc(C(C)(C)C)nc2C)c1    0
CCn1nc(C(C)(C)C)cc1C(=O)Nc1cncc(C(=O)N(C)C)n1    15
CCNC(=O)c1ccnc(NC(=O)c2cc(C(C)(C)C)nn2CC)c1    30

Attention now shifts to the item below.
Look up Plant response rating, Nutsedge, Yellow for this molecule: CCn1nc(C(C)(C)C)cc1C(=O)Nc1cccc(OC(F)(F)C(F)F)c1
0

----------
Test system: yellow nutsedge
assayInfo: Test C pre-/postemergence herbicide test
Format: in vivo, Cyperus esculentus
experimentalParameters: 250 g ai/ha; scale 0-100; preemergence
Assign Plant response rating, Nutsedge, Yellow to each entry below.

Here's what some known entries look like.
CCNC(=O)c1cccc(NC(=O)c2nn(C(C)(C)CC)nc2CC)c1 [Compound 376]    40
CCc1nn(C(C)(C)CC)nc1C(=O)Nc1cccc(C(=O)N(C)C)c1 [Compound 372]    40
CCn1nc(C(C)(C)C)cc1C(=O)Nc1cncc(C(=O)N(C)C)n1 [Compound 287]    60

Attention now shifts to the item below.
Look up Plant response rating, Nutsedge, Yellow for this compound: CCn1nc(C(C)(C)C)cc1C(=O)Nc1cc(C(=O)N2CCCC2)ccc1F [Compound 242]
15

----------
System: giant foxtail
assayInfo: Test C pre-/postemergence herbicide test
Type: in vivo, Setaria faberi
experimentalParameters: 62 g ai/ha; preemergence; scale 0 to 100
Assign Plant response rating, Foxtail, Giant to each entry below.
Numbers only.

Here's what some known entries look like.
CCc1nn(C(C)(C)C)cc1C(=O)Nc1cccc(C(C)=NO)c1    0
CCn1nc(C(C)(C)C)cc1C(=O)Nc1cccc(OC(F)(F)C(F)F)c1    0
CCNC(=O)c1ccc(F)c(N(C(C)=O)C(=O)c2cc(C(C)(C)C)nn2CC)c1    95

Attention now shifts to the item below.
Checklist item: Plant response rating, Foxtail, Giant tested on giant foxtail, entry CCc1nn(C(C)(C)CC)nc1C(=O)Nc1cccc(C(=O)N(C)C)c1 , value?
70

----------
Tested on: johnsongrass
assayInfo: Test C pre-/postemergence herbicide test
Type: in vivo, Sorghum halepense
experimentalParameters: 62 g ai/ha; preemergence
So basically, if Plant response rating (0 = no effect, 100 = complete control), Johnsongrass comes in under 20 it's yes, and if it's 20 or more it's no.

CCn1nc(C(C)(C)C)cc1C(=O)Nc1cc(C(=O)N(C)C)ccc1F [Compound 6]    no
CCn1nc(C(C)(C)C)cc1C(=O)Nc1cccc(C(C)=NO)c1 [Compound 108]    no
CC(=NO)c1cccc(NC(=O)c2cc(C(C)(C)C)nn2C)c1 [Compound 102]    no
CCCCn1nc(C(C)(C)C)cc1C(=O)Nc1cccc(C(=O)NCC)c1 [Compound 41]    yes

A record lists CCn1nc(C(C)(C)C)cc1C(=O)Nc1cc(C#N)ccc1F [Compound 140] . Is its Plant response rating (0 = no effect, 100 = complete control), Johnsongrass below 20?
yes
